System tested: PD-1/PD-L1 (Homo sapiens (Human), UniProt Q9NZQ7)
Sequence (Q9NZQ7 19-238): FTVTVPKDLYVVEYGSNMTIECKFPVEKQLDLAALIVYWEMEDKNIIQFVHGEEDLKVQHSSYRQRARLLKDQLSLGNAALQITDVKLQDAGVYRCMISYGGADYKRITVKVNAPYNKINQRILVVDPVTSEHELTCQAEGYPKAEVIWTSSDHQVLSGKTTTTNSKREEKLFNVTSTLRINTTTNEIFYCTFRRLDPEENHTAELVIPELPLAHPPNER
Method notes: PD-1/PD-L1 biochemical protein-protein interaction assay (ALPHA)
Setup conditions: 0.3 nM His tagged PD-L1, 2.5 nM biotinylated Fc-PD-1, 60 minutes at 25° C., read-out: IC50 PD-L1-PD1
Result type: IC50 (nM)

COc1nc(-c2cccc(-c3cccc(-c4cnc(CN[C@@H]5CC[C@@H](O)C5)c(OC)n4)c3Cl)c2Cl)cnc1CNC[C@@H]1CCC(=O)N1: 0.133
COc1nc(-c2cccc(-c3cccc(-c4cnc(CN5C[C@H](C)[C@@H](O)C5)c(OC)n4)c3Cl)c2Cl)cnc1CNC[C@@H]1CCC(=O)N1: 0.123
COc1nc(-c2cccc(-c3cccc(-c4cnc(CNC[C@@H]5CCC(=O)N5)c(OC)n4)c3Cl)c2F)cnc1CNC[C@@H]1CCC(=O)N1: 0.099
COc1nc(-c2cccc(-c3cccc(-c4cnc(CN[C@H]5COCC[C@@H]5O)c(OC)n4)c3Cl)c2Cl)cnc1CNC[C@@H]1CCC(=O)N1: 0.137

A. COc1nc(-c2cccc(-c3cccc(-c4cnc(CNC[C@@H]5CCC(=O)N5)c(OC)n4)c3Cl)c2Cl)cnc1CNCCn1ccccc1=O
B. COc1nc(-c2cccc(-c3cccc(-c4cnc(CNC[C@H]5C[C@H](O)C5)c(OC)n4)c3Cl)c2Cl)cnc1CNC[C@H]1C[C@H](O)C1
Just curious, which one has the larger IC50 reading, A or B ? State the label of the item chosen.
B
